Here the recorded melting point is given for each entry.

Field: example entries. Status: answers known.
- smiles-data: "O=c1cc(-c2ccccc2)c2ccc(OCc3nnn([C@@H]4O[C@H](CO)[C@H](O)[C@H](O)[C@H]4O)n3)cc2o1"
  melting point: "204 to 205 °C"
- smiles-data: "CC(=O)OC[C@H]1O[C@@H](n2nnc(COc3ccc4c(-c5ccccc5)cc(=O)oc4c3)n2)[C@H](OC(C)=O)[C@@H](OC(C)=O)[C@H]1OC(C)=O"
  melting point: "122 to 124 °C"
- smiles-data: "O=c1cc(-c2ccccc2)c2ccc(OCc3cn([C@@H]4O[C@H](CO)[C@H](O)[C@H](O)[C@H]4O)nn3)cc2o1"
  melting point: "185 to 186 °C"
- smiles-data: "O=c1cc(-c2ccccc2)c2ccc(OCc3cn([C@@H]4O[C@H](CO)[C@@H](O)[C@H](O)[C@H]4O)nn3)cc2o1"
  melting point: "180 to 182 °C"

Next compound, melting point to be filled in.
Endpoint output: melting point of O=c1cc(-c2ccccc2)c2ccc(OCc3nn[nH]n3)cc2o1 . Value?
219 to 221 °C

---

# Test system: human melanoma (A-375) cancer cell line
# test-protocol: MTT cytotoxicity assay, A-375
# reported-conditions: Homo sapiens, A-375, read-out: % Inhibition A-375
Here the recorded inhibition at 100 µM is given for each entry.
Response body: numeric value in %, unit text excluded.

Field: example entries. Status: answers known.
- molecule: "O=c1cc(-c2ccccc2)c2ccc(OCc3cn([C@@H]4O[C@H](CO)[C@@H](O)[C@H](O)[C@H]4O)nn3)cc2o1"
  display-unit: "%"
  inhibition at 100 µM: 97.5
- molecule: "O=c1cc(-c2ccccc2)c2ccc(OCc3nnn(CCOCCO)n3)cc2o1"
  display-unit: "%"
  inhibition at 100 µM: 84.1
- molecule: "CC(=O)OC[C@H]1O[C@@H](n2cc(COc3ccc4c(-c5ccccc5)cc(=O)oc4c3)nn2)[C@H](OC(C)=O)[C@@H](OC(C)=O)[C@@H]1OC(C)=O"
  display-unit: "%"
  inhibition at 100 µM: 96.9
- molecule: "CC(=O)OC[C@H]1O[C@@H](n2nnc(COc3ccc4c(-c5ccccc5)cc(=O)oc4c3)n2)[C@H](OC(C)=O)[C@@H](OC(C)=O)[C@H]1OC(C)=O"
  display-unit: "%"
  inhibition at 100 µM: 23.1
- molecule: "O=c1cc(-c2ccccc2)c2ccc(OCc3nnn([C@@H]4OC[C@@H](O)[C@H](O)[C@H]4O)n3)cc2o1"
  display-unit: "%"
  inhibition at 100 µM: 95
- molecule: "CC(=O)OC[C@H]1O[C@@H](n2cc(COc3ccc4c(-c5ccccc5)cc(=O)oc4c3)nn2)[C@H](OC(C)=O)[C@@H](OC(C)=O)[C@H]1OC(C)=O"
  display-unit: "%"
  inhibition at 100 µM: 96.8

Endpoint output: inhibition at 100 µM of O=c1cc(-c2ccccc2)c2ccc(OCc3nn[nH]n3)cc2o1 . Value?
55.3

Endpoint output: inhibition at 100 µM of O=c1cc(-c2ccccc2)c2ccc(OCc3nnn([C@@H]4O[C@H](CO)[C@H](O)[C@H](O)[C@H]4O)n3)cc2o1 . Value?
13.8

Endpoint output: inhibition at 100 µM of O=c1cc(-c2ccccc2)c2ccc(OCc3nnn(CC(O)CO)n3)cc2o1 (stereo not drawn) . Value?
98.2

Endpoint output: inhibition at 100 µM of O=c1cc(-c2ccccc2)c2ccc(OCc3cn([C@@H]4O[C@H](CO)[C@H](O)[C@H](O)[C@H]4O)nn3)cc2o1 . Value?
98.5

Endpoint output: inhibition at 100 µM of C#CCOc1ccc2c(-c3ccccc3)cc(=O)oc2c1 . Value?
9.1

Endpoint output: inhibition at 100 µM of O=c1cc(-c2ccccc2)c2ccc(O)cc2o1 [Compound 1, 7-hydroxy-4-phenyl-2H-chromen-2-one] . Value?
95

Endpoint output: inhibition at 100 µM of O=c1cc(-c2ccccc2)c2ccc(OCc3cn([C@@H]4OC[C@@H](O)[C@H](O)[C@H]4O)nn3)cc2o1 . Value?
97.9

Endpoint output: inhibition at 100 µM of CC(=O)OC1COC(n2cc(COc3ccc4c(-c5ccccc5)cc(=O)oc4c3)nn2)C(OC(C)=O)C1OC(C)=O (stereo not drawn) . Value?
94.7

Endpoint output: inhibition at 100 µM of N#CCOc1ccc2c(-c3ccccc3)cc(=O)oc2c1 . Value?
6.5

Reference source for all entries: paper PMC9000887
